A collection of compounds and their measured pIC50
Biological target: KRAS Q61H (Homo sapiens (Human), UniProt P01116+P62937, Q61H)
Sequence (P01116-2 other isoform, or with tags, fused parts or gaps Q61H): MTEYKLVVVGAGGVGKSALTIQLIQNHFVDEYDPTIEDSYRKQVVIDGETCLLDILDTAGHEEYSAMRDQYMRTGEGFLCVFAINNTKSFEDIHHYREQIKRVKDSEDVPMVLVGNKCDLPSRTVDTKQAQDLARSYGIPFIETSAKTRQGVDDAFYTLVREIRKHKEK
Sequence (P62937 whole entry): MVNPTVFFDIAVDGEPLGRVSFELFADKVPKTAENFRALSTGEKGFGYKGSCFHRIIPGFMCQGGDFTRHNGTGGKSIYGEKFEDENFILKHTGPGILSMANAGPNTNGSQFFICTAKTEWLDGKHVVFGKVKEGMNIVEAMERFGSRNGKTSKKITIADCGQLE
Experiment: Ras-Raf (BRAF RBD) disruption / FRET / MOA assay, KRAS Q61H
Type: biochemical
Conditions: Ras-Raf disruption/FRET/MOA assay; class symbols; read-out: KRAS Q61H FRET data IC50
pIC50: −log10 of the molar value.

Data request: Please provide the recorded pIC50 for C=CC(=O)N1CC2(C1)OCCCN2C(=O)N(C)[C@H](C(=O)N[C@H]1Cc2nc(cs2)-c2ccc3c(c2)c(c(-c2cccnc2[C@H](C)OC)n3CC)CC(C)(C)COC(=O)[C@@H]2CCCN(N2)C1=O)C(C)C (atropisomer, axis not shown) , tested on KRAS Q61H (Homo sapiens (Human), UniProt P01116+P62937, Q61H).
Data returned: 5.00 to 6.00

Data request: Please provide the recorded pIC50 for C=CC(=O)N1CC[C@H](C(=O)N(C)[C@H](C(=O)N[C@H]2Cc3cccc(c3)-c3ccc4c(c3)c(c(-c3cccnc3[C@H](C)OC)n4CC)CC(C)(C)COC(=O)[C@@H]3CCCN(N3)C2=O)C(C)C)[C@H]1C (atropisomer, axis not shown) , tested on KRAS Q61H (Homo sapiens (Human), UniProt P01116+P62937, Q61H).
Data returned: 6.00 to 7.00

Data request: Please provide the recorded pIC50 for C=CC(=O)N1CC2(CCN(C(=O)N(C)[C@H](C(=O)N[C@H]3Cc4nc(cs4)-c4ccc5c(c4)c(c(-c4cccnc4[C@H](C)OC)n5CC)CC(C)(C)COC(=O)[C@@H]4CCCN(N4)C3=O)C(C)C)CC2)C1 (atropisomer, axis not shown) , tested on KRAS Q61H (Homo sapiens (Human), UniProt P01116+P62937, Q61H).
Data returned: 7.00 to 8.00

Now, please, on to the next compound.
Data request: Please provide the recorded pIC50 for C=CC(=O)N1CCO[C@H]2CN(C(=O)N(C)[C@H](C(=O)N[C@H]3Cc4cccc(c4)-c4ccc5c(c4)c(c(-c4cccnc4[C@H](C)OC)n5CC)CC(C)(C)COC(=O)[C@@H]4CCCN(N4)C3=O)C(C)C)C[C@H]21 (atropisomer, axis not shown) , tested on KRAS Q61H (Homo sapiens (Human), UniProt P01116+P62937, Q61H).
Data returned: 6.00 to 7.00

// provenance: patent US11566007B2
